# experiment description: In vitro stability (half-life) in rat plasma
# Assay type: in vitro ADME
# stated conditions: male, rat, plasma, pH 7.4, 5 μM, rat plasma pH 7.4 with anticoagulant, 37° C.; read-out: T1/2 (minutes) Rat
Note to self: class labels come from recorded half-life at 5 μM, ranges listed here: bin 0: < 10 min; bin 1: ≥ 10 min and < 40 min; bin 2: ≥ 40 min

- molecule: "Cc1ccc(S(=O)(=O)NO)s1"
  group label: "bin 2"
- molecule: "O=S(=O)(NO)c1cc(S(=O)(=O)c2ccccc2)cs1"
  group label: "bin 0"
- molecule: "O=S(=O)(NO)c1ccc(F)c(Cl)c1"
  group label: "bin 2"
- molecule: "Cc1ccc(F)cc1S(=O)(=O)NO"
  group label: "bin 0"
- molecule: "O=S(=O)(NO)c1ccc(Cl)c(Cl)c1"
  group label: "bin 2"
- molecule: "Cc1cc(S(=O)(=O)NO)c(C)cc1Cl"
  group label: "bin 2"
- molecule: "O=S(=O)(NO)c1cccnc1 [Compound 26, N-Hydroxypyridine-3-sulfonamide]"
  group label: "bin 1"
- molecule: "O=S(=O)(NO)c1ccccn1 [Compound 32, N-Hydroxypyridine-2-sulfonamide]"
  group label: "bin 1"
- molecule: "O=C(c1csc(S(=O)(=O)NO)c1)N1CCOCC1"
  group label: "bin 1"
- molecule: "O=S(=O)(NO)c1ccco1 [Compound 83, N-Hydroxyfuran-2-sulfonamide]"
  group label: "bin 2"
- molecule: "COc1ccc(Br)cc1S(=O)(=O)NO"
  group label: "bin 2"
- molecule: "Cc1ccc(C)c(S(=O)(=O)NO)c1"
  group label: "bin 1"
- molecule: "Cc1cc(F)ccc1S(=O)(=O)NO"
  group label: "bin 1"
- molecule: "Cc1ccc(F)c(S(=O)(=O)NO)c1"
  group label: "bin 0"
- molecule: "Cc1oncc1S(=O)(=O)NO"
  group label: "bin 1"
- molecule: "Cc1ccc(S(=O)(=O)NO)c(F)c1"
  group label: "bin 1"
- molecule: "O=[N+]([O-])c1cc(S(=O)(=O)NO)sc1Cl"
  group label: "bin 0"
- molecule: "CC(C)NC(=O)c1cc(S(=O)(=O)NO)cs1"
  group label: "bin 2"
- molecule: "O=S(=O)(NO)c1cccc(Br)c1 [Compound 89, 3-Bromo-N-hydroxybenzene-1-sulfonamide]"
  group label: "bin 1"
- molecule: "CS(=O)(=O)c1ccc(S(=O)(=O)NO)cc1"
  group label: "bin 1"
- molecule: "CC(=O)N1CCc2cc(Br)c(S(=O)(=O)NO)cc21"
  group label: "bin 2"
- molecule: "O=S(=O)(NO)c1cccc2nsnc12"
  group label: "bin 1"
